# ASSAY_NAME: increase of M3R-evoked calcium signal – cell-based, validation screen, HEK293 M3R/RGS4, calcium flux, RGS4 inhibitor project (AID 492999)
# RUN_PARAMETERS: HEK293 M3R/RGS4, carbachol calcium Fluo-4 fluorescence, at 10 µM, carbachol added at its EC20, 0 = buffer wells, 100 = carbachol control
About 1,100 (65%) of roughly 1,700 compounds were called active.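 The calls were made as follows: active = duplicate-averaged calcium response above the buffer-only control mean plus 5 SD of those controls; inactive = the rest.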 So high a share suggests a set chosen from earlier hits. These entries were drawn from the full list.
Lab note: assign the record to one of y = active, n = inactive

{"columns": ["COMPOUND", "ASSIGNED_CATEGORY"],
 "data": [
  ["CCc1ccc2oc(-c3ccc(N)cc3)nc2c1", "y"],
  ["O=S(=O)(Nc1nccs1)c1ccc2c(c1)OCCO2", "n"],
  ["CS(=O)(=O)N(CC(O)Cn1c2ccccc2c2ccccc21)c1cccc2ccccc12 (stereo unspecified)", "y"],
  ["C[C@H](NC(=O)c1nc[nH]c1C(=O)NCC(=O)OC(C)(C)C)c1ccccc1", "y"],
  ["O=C1NC(c2ccc(-c3ccccc3[N+](=O)[O-])o2)C(C(=O)c2ccc(Cl)cc2)C(O)(C(F)(F)F)N1 (stereo unspecified)", "y"]
]}

Inquiry: Name the outcome recorded for O=[N+]([O-])/C=C/c1ccc2c(ccn2Cc2ccccc2)c1 in the assay.
Reply text: y

Cited source: PubChem BioAssay AID492999
